- TEST: Cytotoxicity against human A549 cells assessed as reduction in cell viability measured after 72 hrs by MTT assay
- Type: cell-based
ASSAY_READOUT: CC50 at 72 h

CC(=O)O[C@H]1C(=O)[C@@]2(C)[C@H]([C@H](OC(=O)c3ccccc3)[C@]3(O)C[C@H](OC(=O)[C@H](OC(=O)CCCc4cn(CCCCCC(=O)NCCCC[C@H](NC(=O)N[C@@H](CCC(=O)O)C(=O)O)C(=O)O)nn4)[C@@H](NC(=O)c4ccccc4)c4ccccc4)C(C)=C1C3(C)C)[C@]1(OC(C)=O)CO[C@@H]1C[C@@H]2O
< 20 nM

Okay, here is my list. What is CC50 at 72 h for each of these?
1. CC(=O)O[C@H]1C(=O)[C@@]2(C)[C@H]([C@H](OC(=O)c3ccccc3)[C@]3(O)C[C@H](OC(=O)[C@H](OC(=O)CCCc4cn(CCCCCC(=O)N(CCCC[C@H](NC(=O)N[C@@H](CCC(=O)O)C(=O)O)C(=O)O)Cc5ccc(F)cc5)nn4)[C@@H](NC(=O)c4ccccc4)c4ccccc4)C(C)=C1C3(C)C)[C@]1(OC(C)=O)CO[C@@H]1C[C@@H]2O
2. CC(=O)O[C@H]1C(=O)[C@@]2(C)[C@H]([C@H](OC(=O)c3ccccc3)[C@]3(O)C[C@H](OC(=O)[C@H](O)[C@@H](NC(=O)c4ccccc4)c4ccccc4)C(C)=C1C3(C)C)[C@]1(OC(C)=O)CO[C@@H]1C[C@@H]2O
3. CC(=O)O[C@H]1C(=O)[C@@]2(C)[C@H]([C@H](OC(=O)c3ccccc3)[C@]3(O)C[C@H](OC(=O)[C@H](OC(=O)CCCc4cn(CCCCCC(=O)N(CCCC[C@H](NC(=O)N[C@@H](CCC(=O)O)C(=O)O)C(=O)O)Cc5ccc(Cl)cc5)nn4)[C@@H](NC(=O)c4ccccc4)c4ccccc4)C(C)=C1C3(C)C)[C@]1(OC(C)=O)CO[C@@H]1C[C@@H]2O
4. CC(=O)O[C@H]1C(=O)[C@@]2(C)[C@H]([C@H](OC(=O)c3ccccc3)[C@]3(O)C[C@H](OC(=O)[C@H](OC(=O)CCCc4cn(CCCCCCCCCCC(=O)N(CCCC[C@H](NC(=O)N[C@@H](CCC(=O)O)C(=O)O)C(=O)O)Cc5ccc(Cl)cc5)nn4)[C@@H](NC(=O)c4ccccc4)c4ccccc4)C(C)=C1C3(C)C)[C@]1(OC(C)=O)CO[C@@H]1C[C@@H]2O

(A)
1: < 30 nM; 2: < 20 nM; 3: < 30 nM; 4: < 30 nM

(Q) // query CC50 at 72 h value for entry `CC(=O)O[C@H]1C(=O)[C@@]2(C)[C@H]([C@H](OC(=O)c3ccccc3)[C@]3(O)C[C@H](OC(=O)[C@H](OC(=O)CCCc4cn(CCCCCC(=O)N(CCCC[C@H](NC(=O)N[C@@H](CCC(=O)O)C(=O)O)C(=O)O)Cc5ccc(O)cc5)nn4)[C@@H](NC(=O)c4ccccc4)c4ccccc4)C(C)=C1C3(C)C)[C@]1(OC(C)=O)CO[C@@H]1C[C@@H]2O`
(A) 20 nM

###

- TEST: Cytotoxicity against human MCF7 cells assessed as reduction in cell viability measured after 72 hrs by MTT assay
- Type: cell-based
Exercise: for every item that follows, state its recorded CC50 at 72 h.
Numbers only, in nM.

The following compounds have reported results that may help.
CC(=O)O[C@H]1C(=O)[C@@]2(C)[C@H]([C@H](OC(=O)c3ccccc3)[C@]3(O)C[C@H](OC(=O)[C@H](OC(=O)CCCc4cn(CCCCCCCCCCC(=O)NCCCC[C@H](NC(=O)N[C@@H](CCC(=O)O)C(=O)O)C(=O)O)nn4)[C@@H](NC(=O)c4ccccc4)c4ccccc4)C(C)=C1C3(C)C)[C@]1(OC(C)=O)CO[C@@H]1C[C@@H]2O
189
CC(=O)O[C@H]1C(=O)[C@@]2(C)[C@H]([C@H](OC(=O)c3ccccc3)[C@]3(O)C[C@H](OC(=O)[C@H](OC(=O)CCCc4cn(CCCCCNC(=O)NCCCC[C@H](NC(=O)N[C@@H](CCC(=O)O)C(=O)O)C(=O)O)nn4)[C@@H](NC(=O)c4ccccc4)c4ccccc4)C(C)=C1C3(C)C)[C@]1(OC(C)=O)CO[C@@H]1C[C@@H]2O
56

(Q) What does the data say about its CC50 at 72 h? Entry: `CC(=O)O[C@H]1C(=O)[C@@]2(C)[C@H]([C@H](OC(=O)c3ccccc3)[C@]3(O)C[C@H](OC(=O)[C@H](OC(=O)CCCc4cn(CCCCCCCCCCC(=O)N(CCCC[C@H](NC(=O)N[C@@H](CCC(=O)O)C(=O)O)C(=O)O)Cc5ccc(Cl)cc5)nn4)[C@@H](NC(=O)c4ccccc4)c4ccccc4)C(C)=C1C3(C)C)[C@]1(OC(C)=O)CO[C@@H]1C[C@@H]2O`
(A) 56.5

###

For each of the compounds below, state its CC50 at 72 h.
- TEST: Cytotoxicity against human MCF7 cells assessed as reduction in cell viability measured after 72 hrs by MTT assay
- Assay type: cell-based
Give bare numbers, in nM.

CC(=O)O[C@H]1C(=O)[C@]2(C)[C@@H](OC(=O)CCCc3cn(CCCCCCCCCCC(=O)NCCCC[C@H](NC(=O)N[C@@H](CCC(=O)O)C(=O)O)C(=O)O)nn3)C[C@H]3OC[C@@]3(OC(C)=O)[C@H]2[C@H](OC(=O)c2ccccc2)[C@]2(O)C[C@H](OC(=O)[C@H](O)[C@@H](NC(=O)c3ccccc3)c3ccccc3)C(C)=C1C2(C)C
1210
CC(=O)O[C@H]1C(=O)[C@@]2(C)[C@H]([C@H](OC(=O)c3ccccc3)[C@]3(O)C[C@H](OC(=O)[C@H](OC(=O)CCCc4cn(CCCCCC(=O)N(CCCC[C@H](NC(=O)N[C@@H](CCC(=O)O)C(=O)O)C(=O)O)Cc5ccc(F)cc5)nn4)[C@@H](NC(=O)c4ccccc4)c4ccccc4)C(C)=C1C3(C)C)[C@]1(OC(C)=O)CO[C@@H]1C[C@@H]2O
49
CC(=O)O[C@H]1C(=O)[C@@]2(C)[C@H]([C@H](OC(=O)c3ccccc3)[C@]3(O)C[C@H](OC(=O)[C@H](OC(=O)CCCc4cn(CCCCCC(=O)N(CCCC[C@H](NC(=O)N[C@@H](CCC(=O)O)C(=O)O)C(=O)O)Cc5ccc(Cl)cc5)nn4)[C@@H](NC(=O)c4ccccc4)c4ccccc4)C(C)=C1C3(C)C)[C@]1(OC(C)=O)CO[C@@H]1C[C@@H]2O
78

(Q) Using the record for `CC(=O)O[C@H]1C(=O)[C@@]2(C)[C@H]([C@H](OC(=O)c3ccccc3)[C@]3(O)C[C@H](OC(=O)[C@H](OC(=O)CCCc4cn(CCCCCC(=O)N(CCCC[C@H](NC(=O)N[C@@H](CCC(=O)O)C(=O)O)C(=O)O)Cc5ccc(Br)cc5)nn4)[C@@H](NC(=O)c4ccccc4)c4ccccc4)C(C)=C1C3(C)C)[C@]1(OC(C)=O)CO[C@@H]1C[C@@H]2O` , report its CC50 at 72 h.
(A) 94

###

Provide the recorded CC50 at 72 h for the entries that follow.
- TEST: Cytotoxicity against human MCF7 cells assessed as reduction in cell viability measured after 72 hrs by MTT assay
- Format: cell-based
Numbers only, in nM.

Some molecules with known CC50 at 72 h results, for comparison:
CC(=O)O[C@H]1C(=O)[C@@]2(C)[C@H]([C@H](OC(=O)c3ccccc3)[C@]3(O)C[C@H](OC(=O)[C@H](OC(=O)CCCc4cn(CCCCCCCCCCNC(=O)NCCCC[C@H](NC(=O)N[C@@H](CCC(=O)O)C(=O)O)C(=O)O)nn4)[C@@H](NC(=O)c4ccccc4)c4ccccc4)C(C)=C1C3(C)C)[C@]1(OC(C)=O)CO[C@@H]1C[C@@H]2O
162
CC(=O)O[C@H]1C(=O)[C@@]2(C)[C@H]([C@H](OC(=O)c3ccccc3)[C@]3(O)C[C@H](OC(=O)[C@H](OC(=O)CCCc4cn(CCCCCCCCCCC(=O)N(CCCC[C@H](NC(=O)N[C@@H](CCC(=O)O)C(=O)O)C(=O)O)Cc5ccc(F)cc5)nn4)[C@@H](NC(=O)c4ccccc4)c4ccccc4)C(C)=C1C3(C)C)[C@]1(OC(C)=O)CO[C@@H]1C[C@@H]2O
66

Count: 2. Required value per item: CC50 at 72 h.
1. CC(=O)O[C@H]1C(=O)[C@@]2(C)[C@H]([C@H](OC(=O)c3ccccc3)[C@]3(O)C[C@H](OC(=O)[C@H](OC(=O)CCCc4cn(CCCCCC(=O)N(CCCC[C@H](NC(=O)N[C@@H](CCC(=O)O)C(=O)O)C(=O)O)Cc5ccc(O)cc5)nn4)[C@@H](NC(=O)c4ccccc4)c4ccccc4)C(C)=C1C3(C)C)[C@]1(OC(C)=O)CO[C@@H]1C[C@@H]2O
2. CC(=O)O[C@H]1C(=O)[C@@]2(C)[C@H]([C@H](OC(=O)c3ccccc3)[C@]3(O)C[C@H](OC(=O)[C@H](OC(=O)CCCc4cn(CCCCCCCCCCC(=O)N(CCCC[C@H](NC(=O)N[C@@H](CCC(=O)O)C(=O)O)C(=O)O)Cc5ccc(Br)cc5)nn4)[C@@H](NC(=O)c4ccccc4)c4ccccc4)C(C)=C1C3(C)C)[C@]1(OC(C)=O)CO[C@@H]1C[C@@H]2O

(A)
1: 169; 2: 34
